assay: Solubility test (shaker 37° C., 24 h, HPLC); conditions: acetone, 37 °C, organic solvent or mixture, thermodynamic from solid
result-type: solubility at 24 h

1) C[C@H]1CCC/C=C/[C@@H]2C[C@H](O)C[C@H]2[C@H](OC(=O)/C=C/c2ccccc2)/C=C/C(=O)O1
9480 µg/mL
2) C[C@H]1CCC/C=C/[C@@H]2C[C@H](OC(=O)/C=C/c3ccccc3)C[C@H]2[C@H](OC(=O)/C=C/c2ccccc2)/C=C/C(=O)O1
5360 µg/mL

---

assay: Solubility test (shaker 37° C., 24 h, HPLC); settings: methanol, 37 °C, organic solvent or mixture, thermodynamic from solid
molecules and their reported solubility at 24 h
result-type: solubility at 24 h (µg/mL)

1. C[C@H]1CCC/C=C/[C@@H]2C[C@H](OC(=O)/C=C/c3ccccc3)C[C@H]2[C@H](OC(=O)/C=C/c2ccccc2)/C=C/C(=O)O1
5300
2. C[C@H]1CCC/C=C/[C@@H]2C[C@H](O)C[C@H]2[C@H](OC(=O)/C=C/c2ccccc2)/C=C/C(=O)O1
9410
